target: HLA-DQ molecule DQB1*0503 (human); assay: inhibition of radiolabeled peptide binding to purified HLA
# label = bin(measured IC50), where bins are b0 = under 1 µM, b1 = from 1 µM up to 9 µM, b2 = 9 µM and over

# count of solved cases: 4
> print(dat)
                                     binder  class.name
1  REALAQTHSAIAVII [Der p 1 peptide 3324.0840 (position 226)]          b2
2  IEFRFYKEITNVFRG [Der p 4 peptide 3324.0976 (position 251)]          b1
3  SRGNRAFIAINLQKN [Der p 4 peptide 3324.0974 (position 416)]          b0
4  EHRWREIYNMVKFRM [Der p 4 peptide 3324.0986 (position 381)]          b1

Qu. Returns: class label. Input: EIYNMVKFRMIAGQE [Der p 4 peptide 3324.0978 (position 386)]
Ans. b2

Qu. Form: Item = YQIAFSRGNRAFIAI [Der p 4 peptide 3324.0980 (position 411)] ; Class = ?
Ans. b1

Qu. Band for the recorded IC50 of FDAFVAYHIGARIVS [Der p 4 peptide 3324.0971 (position 482)] ?
Ans. b1

Qu. Which bin, given its IC50, does AFMLAWNYGVPRVMS [Der p 4 peptide 3324.0977 (position 321)] occupy?
Ans. b0
